These measurements were taken from patent US20250152704A1.

- Subject Of Test: T1, Recombinant in-house Human FcRn protein (human, UniProt P55899 24-297; P61769 21-119, limits assumed)
- T1 construct: also called huFCRN; HuFcRn
- Assay Details: SPR, pH 6
Exam item: assign Yes to entries whose Kd is below 10 nM and No to entries at or above 10 nM. Note that a value of exactly 10 nM receives No.

{"Binder": "Fc Fragment 18 (other, Human IgG1 Fc fragment; substitutions already in the entry) DKTHTCPPCPAPELLGGPSVFLFPPKPKDTLYITREPEVTCVVVDVSHEDPEVKFNWYVDGVEVHNAKTKPREEQYNSTYRVVSVLTVDHQDWLNGKEYKCKVSNKALPAPIEKTISKAKGQPREPQVYTLPPSRDELTKNQVSLTCLVKGFYPSDIAVEWESNGQPENNYKTTPPVLDSDGSFFLYSKLTVDKSRWQQGNVFSCSVLHEALKYHYTQKSLSLSPG", "Category Label": "No"}
{"Binder": "Fc Fragment 13 (other, Human IgG1 Fc fragment; substitutions already in the entry) DKTHTCPPCPAPELLGGPSVFLFPPKPKDTLYITREPEVTCVVVDVSHEDPEVKFNWYVDGVEVHNAKTKPREEQYNSTYRVVSVLTVLHQDWLNGKEYKCKVSNKALPAPIEKTISKAKGQPREPQVYTLPPSRDELTKNQVSLTCLVKGFYPSDIAVEWESNGQPENNYKTTPPVLDSDGSFFLYSKLTVDKSRWQQGNVFSCSVMHEALRFHYTQKSLSLSPG", "Category Label": "Yes"}
{"Binder": "Fc Fragment 2 (other, Human IgG1 Fc fragment; substitutions already in the entry; also called Fc195) DKTHTCPPCPAPELLGGPSVFLFPPKPKDTLYITREPEVTCVVVDVSHEDPEVKFNWYVDGVEVHNAKTKPREEQYNSTYRVVSVLTVLHQDWLNGKEYKCKVSNKALPAPIEKTISKAKGQPREPQVYTLPPSRDELTKNQVSLTCLVKGFYPSDIAVEWESNGQPENNYKTTPPVLDSDGSFFLYSKLTVDKSRWQQGNVFSCSVLHEALKFHYTQKSLSLSPG", "Category Label": "Yes"}
{"Binder": "Fc Fragment 15 (other, Human IgG1 Fc fragment; substitutions already in the entry) DKTHTCPPCPAPELLGGPSVFLFPPKPKDTLYITREPEVTCVVVDVSHEDPEVKFNWYVDGVEVHNAKTKPREEQYNSTYRVVSVLTVDHQDWLNGKEYKCKVSNKALPAPIEKTISKAKGQPREPQVYTLPPSRDELTKNQVSLTCLVKGFYPSDIAVEWESNGQPENNYKTTPPVLDSDGSFFLYSKLTVDKSRWQQGNVFSCSVMHEALKFHYTQKSLSLSPG", "Category Label": "No"}
{"Binder": "Fc Fragment 17 (other, Human IgG1 Fc fragment; substitutions already in the entry) DKTHTCPPCPAPELLGGPSVFLFPPKPKDTLYITREPEVTCVVVDVSHEDPEVKFNWYVDGVEVHNAKTKPREEQYNSTYRVVSVLTVDHQDWLNGKEYKCKVSNKALPAPIEKTISKAKGQPREPQVYTLPPSRDELTKNQVSLTCLVKGFYPSDIAVEWESNGQPENNYKTTPPVLDSDGSFFLYSKLTVDKSRWQQGNVFSCSVLHEALKFHYTQKSLSLSPG", "Category Label": "No"}
{"Binder": "Fc Fragment 10 (other, Human IgG1 Fc fragment; substitutions already in the entry) DKTHTCPPCPAPELLGGPSVFLFPPKPKDTLYITREPEVTCVVVDVSHEDPEVKFNWYVDGVEVHNAKTKPREEQYNSTYRVVSVLTVLHQDWLNGKEYKCKVSNKALPAPIEKTISKAKGQPREPQVYTLPPSRDELTKNQVSLTCLVKGFYPSDIAVEWESNGQPENNYKTTPPVLDSDGSFFLYSKLTVDKSRWQQGNVFSCSVLHEALKYHYTQKSLSLSPG", "Category Label": "Yes"}
{"Binder": "Fc Fragment 1 (other, Human IgG1 Fc fragment (EU 221-446) with the named substitutions already in the entry; also called Efgartigimod (Efgart); Efgartigimod without the C-terminal lysine) DKTHTCPPCPAPELLGGPSVFLFPPKPKDTLYITREPEVTCVVVDVSHEDPEVKFNWYVDGVEVHNAKTKPREEQYNSTYRVVSVLTVLHQDWLNGKEYKCKVSNKALPAPIEKTISKAKGQPREPQVYTLPPSRDELTKNQVSLTCLVKGFYPSDIAVEWESNGQPENNYKTTPPVLDSDGSFFLYSKLTVDKSRWQQGNVFSCSVMHEALKFHYTQKSLSLSPG", "Category Label": "Yes"}
{"Binder": "Fc Fragment 19 (other, Human IgG1 Fc fragment; substitutions already in the entry) DKTHTCPPCPAPELLGGPSVFLFPPKPKDTLYITREPEVTCVVVDVSHEDPEVKFNWYVDGVEVHNAKTKPREEQYNSTYRVVSVLTVDHKDWLNGKEYKCKVSNKALPAPIEKTISKAKGQPREPQVYTLPPSRDELTKNQVSLTCLVKGFYPSDIAVEWESNGQPENNYKTTPPVLDSDGSFFLYSKLTVDKSRWQQGNVFSCSVMHEALKFHYTQKSLSLSPG", "Category Label": "No"}
{"Binder": "Fc Fragment 3 (other, Human IgG1 Fc fragment; substitutions already in the entry; also called Fc197) DKTHTCPPCPAPELLGGPSVFLFPPKPKDTLYITREPEVTCVVVDVSHEDPEVKFNWYVDGVEVHNAKTKPREEQYNSTYRVVSVLTVLHQDWLNGKEYKCKVSNKALPAPIEKTISKAKGQPREPQVYTLPPSRDELTKNQVSLTCLVKGFYPSDIAVEWESNGQPENNYKTTPPVLDSDGSFFLYSKLTVDKSRWQQGNVFSCSVMHEALKYHYTQKSLSLSPG", "Category Label": "Yes"}
{"Binder": "Fc Fragment 12 (other, Human IgG1 Fc fragment; substitutions already in the entry) DKTHTCPPCPAPELLGGPSVFLFPPKPKDTLYITREPEVTCVVVDVSHEDPEVKFNWYVDGVEVHNAKTKPREEQYNSTYRVVSVLTVLHQDWLNGKEYKCKVSNKALPAPIEKTISKAKGQPREPQVYTLPPSRDELTKNQVSLTCLVKGFYPSDIAVEWESNGQPENNYKTTPPVLDSDGSFFLYSKLTVDKSRWQQGNVFSCSVMHEALRYHYTQKSLSLSPG", "Category Label": "Yes"}
